Each entry below carries its recorded recombinant UMI read abundance (log10).
# Test Name: recombinant UMI read abundance after kanamycin selection (control-corrected) (log10(CPM+1)); higher = more efficient recombination; extreme values may be limits of the assay; sequences stand for … in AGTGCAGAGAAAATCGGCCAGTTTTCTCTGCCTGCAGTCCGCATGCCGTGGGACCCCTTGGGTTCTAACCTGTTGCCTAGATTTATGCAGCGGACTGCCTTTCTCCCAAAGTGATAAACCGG…AGGTTGGTTTCACT; site = the 11-nt donor
Provide a numeric answer; units are not to be included.

Observe how each entry below is paired with its result.
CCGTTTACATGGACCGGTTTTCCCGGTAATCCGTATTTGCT (site CCGTTTACTTG) :: 0
TCTTCATCATGGACCGGTTTTCCCGGTAATCCGTATTTGTA (site TCTTCATCTTA) :: 0.00251

Next sequence, recombinant UMI read abundance (log10) to be filled in.
Measured recombinant UMI read abundance (log10), TTAAGAGCATGGACCGGTTTTCCCGGTAATCCGTATTTGCA (site TTAAGAGCTTG) : 2.63

* * *

# Test Name: recombinant barcode read abundance after kanamycin selection (control-corrected) (log10(CPM+1)); higher = more efficient recombination; sequences stand for … in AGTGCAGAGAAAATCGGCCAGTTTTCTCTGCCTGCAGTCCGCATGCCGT…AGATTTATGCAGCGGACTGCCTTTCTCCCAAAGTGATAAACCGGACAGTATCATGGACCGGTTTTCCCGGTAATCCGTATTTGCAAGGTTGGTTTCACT; site = the 11-nt target
Property Name: recombinant barcode read abundance (log10)

Observe how each entry below is paired with its result.
CCGACTCCTTGGGTTCTAACCTGTTGCCT (site CCGAATCCTAG) :: 0.0273
CGCTCGACTTGGGTTCTAACCTGTTGCCT (site CGCTAGACTAG) :: 0.596
TCGAACCCTTGGGTTCTAACCTGTTGCGG (site TCTAACCCTCC) :: 0.0521
GTCACCGCTTGGGTTCTAACCTGTTGCCT (site GTGACCGCTAG) :: 0.129
CACCCCTCTTGGGTTCTAACCTGTTGCCG (site CACCCCTCTCG) :: 2.44

Measured recombinant barcode read abundance (log10), GAGCTGACTTGGGTTCTAACCTGTTGCCT (site GAGCGGACTAG) : 0.0812

Measured recombinant barcode read abundance (log10), ATTTGAACTTGGGTTCTAACCTGTTGCCT (site ATTTGCACTAG) : 0.0882

Measured recombinant barcode read abundance (log10), GACTTGCCTTGGGTTCTAACCTGTTGCCT (site GACTTGTCTAG) : 0.217

* * *

Each entry below carries its recorded recombinant barcode read abundance (log10).
# Test Name: recombinant barcode read abundance after kanamycin selection (control-corrected) (log10(CPM+1)); higher = more efficient recombination; sequences stand for … in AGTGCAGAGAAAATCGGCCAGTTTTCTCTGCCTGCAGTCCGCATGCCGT…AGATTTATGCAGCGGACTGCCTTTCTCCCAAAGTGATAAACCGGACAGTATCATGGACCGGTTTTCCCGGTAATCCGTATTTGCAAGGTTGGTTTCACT; site = the 11-nt target
Provide a numeric answer; units are not to be included.

Observe how each entry below is paired with its result.
AGCCTGACTTGGGTTCTAACCTGTTGCCT (site AGCCTGCCTAG) :: 0.313
GACACGCCTTGGGTTCTAACCTGTTGCTT (site GACACGCCTAG) :: 0.0922
TCGGATACTTGGGTTCTAACCTGTTGCAT (site TCGGATACTAA) :: 0.31
TCATTGACTTGGGTTCTAACCTGTTGCCT (site TCATTGACTAG) :: 0.622
AGTAAGCCTTGGGTTCTAACCTGTTGCCT (site AGTCAGCCTAG) :: 0.243

Measured recombinant barcode read abundance (log10), TTCAAATCTTGGGTTCTAACCTGTTGCCT (site TTCAAAACTAG) : 0.0847

Measured recombinant barcode read abundance (log10), TAGAACTCTTGGGTTCTAACCTGTTGCCC (site TAGAACTCTCG) : 0.0614

Measured recombinant barcode read abundance (log10), ACTAGTCCTTGGGTTCTAACCTGTTGCGT (site ACTAGTCCTAA) : 0.0427

Measured recombinant barcode read abundance (log10), ATCTAAACTTGGGTTCTAACCTGTTGCCT (site ATCTAAACTAG) : 0.842

Measured recombinant barcode read abundance (log10), GATCGATCTTGGGTTCTAACCTGTTGCCT (site GATCGATCTAG) : 0.663

Measured recombinant barcode read abundance (log10), GGCTGTCCTTGGGTTCTAACCTGTTGCGT (site GGCTGTCCTAC) : 0.751

* * *

# Test Name: recombinant UMI read abundance after kanamycin selection (control-corrected) (log10(CPM+1)); higher = more efficient recombination; extreme values may be limits of the assay; sequences stand for … in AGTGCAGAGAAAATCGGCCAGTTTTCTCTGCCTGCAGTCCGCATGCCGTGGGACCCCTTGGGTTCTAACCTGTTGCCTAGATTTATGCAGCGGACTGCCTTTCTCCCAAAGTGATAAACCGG…AGGTTGGTTTCACT; site = the 11-nt donor
Property Name: recombinant UMI read abundance (log10)
Provide a numeric answer; units are not to be included.

Observe how each entry below is paired with its result.
AGGTGCCCATGGACCGGTTTTCCCGGTAATCCGTATTTGTG (site AGGTACCCTCA) :: 0.015
CTGTCTTCATGGACCGGTTTTCCCGGTAATCCGTATTTGGG (site CTGTCTTCTCC) :: 0.0096

Next sequence, recombinant UMI read abundance (log10) to be filled in.
Measured recombinant UMI read abundance (log10), TCGCACACATGGACCGGTTTTCCCGGTAATCCGTATTTGCG (site TCGCACACTCG) : 0.00409

* * *

# Test Name: recombinant barcode read abundance after kanamycin selection (control-corrected) (log10(CPM+1)); higher = more efficient recombination; sequences stand for … in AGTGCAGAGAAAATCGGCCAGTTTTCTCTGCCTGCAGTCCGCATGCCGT…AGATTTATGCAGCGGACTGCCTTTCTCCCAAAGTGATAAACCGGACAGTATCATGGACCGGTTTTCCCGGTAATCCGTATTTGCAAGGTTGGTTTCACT; site = the 11-nt target
Label true (1) when recombinant barcode read abundance (log10) >= 0.1; otherwise false (0).

Solved entries (count: 5):
TTCCGCTCTTGGGTTCTAACCTGTTGCCT (site GTCCGCTCTAG) :: true (1)
GAGAGTACTTGGGTTCTAACCTGTTGCAT (site GAGGGTACTAT) :: true (1)
GCATCGTCTTGGGTTCTAACCTGTTGCCT (site GCGTCGTCTAG) :: false (0)
TATTACCCTTGGGTTCTAACCTGTTGCCT (site TATTAGCCTAG) :: false (0)
ACTGTATCTTGGGTTCTAACCTGTTGCCT (site GCTGTATCTAG) :: false (0)

# input for lookup
Problem: Could you please find out whether CATCTATCTTGGGTTCTAACCTGTTGCCT (site CATCTATCTAG) has recombinant barcode read abundance (log10) that meets 0.1 or exceeds it?
Solution: true (1)

* * *

# Test Name: recombinant UMI read abundance after kanamycin selection (control-corrected) (log10(CPM+1)); higher = more efficient recombination; extreme values may be limits of the assay; sequences stand for … in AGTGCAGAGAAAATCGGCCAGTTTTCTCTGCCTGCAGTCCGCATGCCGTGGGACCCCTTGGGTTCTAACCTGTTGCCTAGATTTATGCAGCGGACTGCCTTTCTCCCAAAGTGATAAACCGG…AGGTTGGTTTCACT; site = the 11-nt donor
Property Name: recombinant UMI read abundance (log10)

Observe how each entry below is paired with its result.
ATGGCCGCATGGACCGGTTTTCCCGGTAATCCGTATTTGGC (site ATGGCCGCTGC) :: 2.53
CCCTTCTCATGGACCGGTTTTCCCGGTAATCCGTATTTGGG (site CCCGTCTCTCC) :: 0.00385
CACGGCCCATGGACCGGTTTTCCCGGTAATCCGTATTTGTG (site CACGGCCCTGA) :: 0
TTTAGAACATGGACCGGTTTTCCCGGTAATCCGTATTTGGC (site ATTAGAACTGC) :: 0.0159
CCTAAAACATGGACCGGTTTTCCCGGTAATCCGTATTTGGC (site CCTAAAACTGC) :: 0
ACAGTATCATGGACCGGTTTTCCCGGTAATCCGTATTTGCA (site ACGCTATCTTG) :: 1.16

Measured recombinant UMI read abundance (log10), CGATCATCATGGACCGGTTTTCCCGGTAATCCGTATTTGCG (site CGATCATCTAG) : 0

Measured recombinant UMI read abundance (log10), TAATGAGCATGGACCGGTTTTCCCGGTAATCCGTATTTGGC (site TAATGAGCTGC) : 2.42

Measured recombinant UMI read abundance (log10), GTTCGAACATGGACCGGTTTTCCCGGTAATCCGTATTTGGC (site GTTAGAACTGC) : 0

Measured recombinant UMI read abundance (log10), CTCCTACCATGGACCGGTTTTCCCGGTAATCCGTATTTGCT (site CTGCTACCTAG) : 0.00362

Measured recombinant UMI read abundance (log10), CAACTTTCATGGACCGGTTTTCCCGGTAATCCGTATTTGGT (site CAACTTTCTAC) : 0.82

Measured recombinant UMI read abundance (log10), GCTTGCGCATGGACCGGTTTTCCCGGTAATCCGTATTTGAT (site GCTTGCGCTAT) : 1.72

Measured recombinant UMI read abundance (log10), GTAGGCGCATGGACCGGTTTTCCCGGTAATCCGTATTTGCG (site GTAGCCGCTCG) : 0

Measured recombinant UMI read abundance (log10), CCAGGGGCATGGACCGGTTTTCCCGGTAATCCGTATTTGAT (site CCAGGAGCTAT) : 0.735

Measured recombinant UMI read abundance (log10), AGCCCGCCATGGACCGGTTTTCCCGGTAATCCGTATTTGGG (site AGCCCGCCTCC) : 0.00589

Measured recombinant UMI read abundance (log10), TGTTCCGCATGGACCGGTTTTCCCGGTAATCCGTATTTGTA (site TGTTCCGCTTA) : 0.0982
